Biological target: Oxysterols receptor LXR-alpha (Homo sapiens, UniProt Q13133)
MEASURED PARAMETER: pKi
One number for each entry, as −log10 of the molar value.

Observed pKi on Oxysterols receptor LXR-alpha (Homo sapiens, UniProt Q13133) for `CC(C)CC[C@H](O)[C@@H](C)[C@H]1CC[C@H]2[C@@H]3CC=C4C[C@@H](O)CC[C@]4(C)[C@H]3CC[C@]12C` , please. 6.74

###

Target: Oxysterols receptor LXR-alpha (Homo sapiens)
Experiment: Tested for its ability to activate Liver X receptor-alpha expressed as Relative efficacy determined by maximal increase in relative fluorescence in LiSA
Param threshold (1) applies to RE; output t when value >= threshold, f when value < threshold.

Some entries whose results are on file:
{"QUERY SMILES": "C[C@H](C[C@@H](CO)C(C)(C)O)[C@H]1CC[C@H]2[C@@H]3CC=C4C[C@@H](O)CC[C@]4(C)[C@H]3CC[C@]12C", "CLASS LABEL": "f"}
{"QUERY SMILES": "CC(C)C(=O)NC[C@@H](C)[C@H]1CC[C@H]2[C@@H]3CC=C4C[C@@H](O)CC[C@]4(C)[C@H]3CC[C@]12C", "CLASS LABEL": "f"}
{"QUERY SMILES": "CC(C)C(=O)CC[C@@H](C)[C@H]1CC[C@H]2[C@@H]3CC=C4C[C@@H](O)CC[C@]4(C)[C@H]3CC[C@]12C", "CLASS LABEL": "t"}
{"QUERY SMILES": "C[C@H](CNC(=O)N(C)C)[C@H]1CC[C@H]2[C@@H]3CC=C4C[C@@H](O)CC[C@]4(C)[C@H]3CC[C@]12C", "CLASS LABEL": "f"}
{"QUERY SMILES": "CC(C)[C@H](O)CC[C@@H](C)[C@H]1CC[C@H]2[C@@H]3CC=C4C[C@@H](O)CC[C@]4(C)[C@H]3CC[C@]12C", "CLASS LABEL": "f"}
{"QUERY SMILES": "CNC(=O)CC[C@@H](C)[C@H]1CC[C@H]2[C@@H]3CC=C4C[C@@H](O)CC[C@]4(C)[C@H]3CC[C@]12C", "CLASS LABEL": "f"}
{"QUERY SMILES": "CC(C)CCC[C@@H](C)[C@H]1CC[C@H]2[C@@H]3CC=C4C[C@@H](O)CC[C@]4(C)[C@H]3CC[C@]12C", "CLASS LABEL": "f"}
{"QUERY SMILES": "C[C@H](CCCC(C)(C)O)[C@H]1CC[C@H]2[C@@H]3CC=C4C[C@@H](O)CC[C@]4(C)[C@H]3CC[C@]12C", "CLASS LABEL": "f"}

For this molecule, is measured RE 1 or higher? `C[C@@H](CO)CCC[C@@H](C)[C@H]1CC[C@H]2[C@@H]3CC=C4C[C@@H](O)CC[C@]4(C)[C@H]3CC[C@]12C` f

Would you kindly repeat that for `C[C@H](CCC(=O)N(C)C)[C@H]1CC[C@H]2[C@@H]3CC=C4C[C@@H](O)CC[C@]4(C)[C@H]3CC[C@]12C` ? t

###

Exercise: for every item that follows, state its recorded pEC50.
Biological target: UniProt:Q13133
Sequence (Q13133 whole entry): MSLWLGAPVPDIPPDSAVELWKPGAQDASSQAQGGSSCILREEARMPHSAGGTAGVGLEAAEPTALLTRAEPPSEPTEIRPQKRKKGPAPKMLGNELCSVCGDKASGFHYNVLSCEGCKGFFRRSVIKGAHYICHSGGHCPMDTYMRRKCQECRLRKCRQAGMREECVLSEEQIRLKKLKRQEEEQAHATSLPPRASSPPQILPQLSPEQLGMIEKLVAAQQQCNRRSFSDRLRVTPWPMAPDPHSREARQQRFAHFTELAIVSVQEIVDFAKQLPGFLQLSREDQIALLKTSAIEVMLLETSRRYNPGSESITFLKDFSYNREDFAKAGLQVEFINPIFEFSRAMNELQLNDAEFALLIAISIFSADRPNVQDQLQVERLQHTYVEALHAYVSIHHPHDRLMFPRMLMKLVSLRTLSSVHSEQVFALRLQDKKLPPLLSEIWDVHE
Test: Concentration required for half maximal activity was calculated in human nuclear oxysterol receptor liver X receptor-alpha in LiSA.
Give bare numbers, as −log10 of the molar value.

Examples with their reported pEC50 follow.
{"MOLECULE": "C[C@H](CC[C@H]1OC1(C)C)[C@H]1CC[C@H]2[C@@H]3CC=C4C[C@@H](O)CC[C@]4(C)[C@H]3CC[C@]12C", "pEC50": 6.17}
{"MOLECULE": "C[C@H](CCC(=O)O)[C@H]1CC[C@H]2[C@@H]3CC=C4C[C@@H](O)CC[C@]4(C)[C@H]3CC[C@]12C", "pEC50": 5.52}
{"MOLECULE": "CC(C)C(=O)CC[C@@H](C)[C@H]1CC[C@H]2[C@@H]3CC=C4C[C@@H](O)CC[C@]4(C)[C@H]3CC[C@]12C", "pEC50": 6.74}
{"MOLECULE": "CC(C)[C@@H](O)CC[C@@H](C)[C@H]1CC[C@H]2[C@@H]3CC=C4C[C@@H](O)CC[C@]4(C)[C@H]3CC[C@]12C", "pEC50": 6.89}
{"MOLECULE": "CC(C)CC[C@@H](O)[C@@H](C)[C@H]1CC[C@H]2[C@@H]3CC=C4C[C@@H](O)CC[C@]4(C)[C@H]3CC[C@]12C [22(R)-HYDROXYCHOLESTEROL]", "pEC50": 6.49}

Go through the items and report each one's pEC50.
1. CC(C)C[C@H](O)C[C@@H](C)[C@H]1CC[C@H]2[C@@H]3CC=C4C[C@@H](O)CC[C@]4(C)[C@H]3CC[C@]12C
2. CC(C)CCC[C@](C)(O)[C@H]1CC[C@H]2[C@@H]3CC=C4C[C@@H](O)CC[C@]4(C)[C@H]3CC[C@@]21C
3. CC(C)[C@H](O)CC[C@@H](C)[C@H]1CC[C@H]2[C@@H]3CC=C4C[C@@H](O)CC[C@]4(C)[C@H]3CC[C@]12C
4. C[C@H](CCC(=O)N(C)C)[C@H]1CC[C@H]2[C@@H]3CC=C4C[C@@H](O)CC[C@]4(C)[C@H]3CC[C@]12C
5. C[C@H](CCCC(C)(C)O)[C@H]1CC[C@H]2[C@@H]3CC=C4C[C@@H](O)CC[C@]4(C)[C@H]3CC[C@]12C

[5.23, 6.33, 6.66, 6.77, 5.94]

For each entry beneath this line, provide reported pEC50.
1. C[C@@H](CO)CCC[C@@H](C)[C@H]1CC[C@H]2[C@@H]3CC=C4C[C@@H](O)CC[C@]4(C)[C@H]3CC[C@]12C
2. COC(=O)CC[C@@H](C)[C@H]1CC[C@H]2[C@@H]3CC=C4C[C@@H](O)CC[C@]4(C)[C@H]3CC[C@]12C
3. C[C@H](CC[C@@H]1OC1(C)C)[C@H]1CC[C@H]2[C@@H]3CC=C4C[C@@H](O)CC[C@]4(C)[C@H]3CC[C@]12C [24(S),25-EPOXYCHOLESTEROL]
4. CNC(=O)CC[C@@H](C)[C@H]1CC[C@H]2[C@@H]3CC=C4C[C@@H](O)CC[C@]4(C)[C@H]3CC[C@]12C

1: 6.60; 2: 6.98; 3: 6.34; 4: 6.14
